- test.system: cloned human κ opioid receptor (Homo sapiens)
- Construct: expressed in transfected cells
- Sequence (P41145 whole entry): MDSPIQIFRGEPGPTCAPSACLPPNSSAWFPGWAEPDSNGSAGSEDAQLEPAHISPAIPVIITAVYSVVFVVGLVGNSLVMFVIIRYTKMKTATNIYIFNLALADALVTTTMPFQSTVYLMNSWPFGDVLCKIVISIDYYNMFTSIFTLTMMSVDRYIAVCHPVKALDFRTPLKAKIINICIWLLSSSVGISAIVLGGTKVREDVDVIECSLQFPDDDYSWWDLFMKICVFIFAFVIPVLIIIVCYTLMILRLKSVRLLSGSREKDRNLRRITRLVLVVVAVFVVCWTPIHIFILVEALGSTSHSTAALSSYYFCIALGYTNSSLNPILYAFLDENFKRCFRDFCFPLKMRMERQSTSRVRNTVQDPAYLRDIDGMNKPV
- test.description: Inhibition of U69,593-stimulated [35S]GTPγS binding
- Assay type: biochemical
- measurement.parameters: antagonism of agonist U69,593, [35S]GTPγS binding; read-out: κ, U69,593 ke
Records here are stratified by Kb; strata: L: < 3 nM; M: ≥ 3 nM and < 10 nM; H: ≥ 10 nM

Band for the recorded Kb of C[C@H]1CN(C)CCN1c1cccc(O)c1 [Compound 5f, (S)-3-(2,4-Dimethylpiperazin-1-yl)phenol] ? H

Band for the recorded Kb of Oc1cccc(N2CCN(CCCc3ccccc3)CC2)c1 [Compound 5a, 3-(4-Phenylpropylpiperazin-1-yl)phenol] ? H

Band for the recorded Kb of C[C@@H]1CN(CCCc2ccccc2)CCN1c1cccc(O)c1 [Compound 5c] ? L

Band for the recorded Kb of C[C@H]1CN(c2cccc(O)c2)[C@@H](C)CN1CCCc1ccccc1 [Compound 5e] ? M

Band for the recorded Kb of CC(C)[C@@H](CN1CCN(c2cccc(O)c2)[C@@H](C)C1)NC(=O)[C@H]1Cc2ccc(O)cc2CN1 [Compound 5j] ? L

Band for the recorded Kb of CC1CN(CCCc2ccccc2)CCC1(C)c1cccc(O)c1 (centres unmarked) [Compound 2c, reference compound] ? L

Band for the recorded Kb of C[C@H]1CN(CCCc2ccccc2)CCN1c1cccc(O)c1 [Compound 5b] ? M

Band for the recorded Kb of C[C@@H]1CN(CCCc2ccccc2)[C@@H](C)CN1c1cccc(O)c1 [Compound 5h] ? H

Band for the recorded Kb of C[C@@H]1CN(c2cccc(O)c2)[C@@H](C)CN1CCCc1ccccc1 [Compound 5g] ? M

---

- test.system: cloned human δ opioid receptor (Homo sapiens, UniProt P41143)
- Construct: expressed in transfected cells
- Sequence (P41143 whole entry): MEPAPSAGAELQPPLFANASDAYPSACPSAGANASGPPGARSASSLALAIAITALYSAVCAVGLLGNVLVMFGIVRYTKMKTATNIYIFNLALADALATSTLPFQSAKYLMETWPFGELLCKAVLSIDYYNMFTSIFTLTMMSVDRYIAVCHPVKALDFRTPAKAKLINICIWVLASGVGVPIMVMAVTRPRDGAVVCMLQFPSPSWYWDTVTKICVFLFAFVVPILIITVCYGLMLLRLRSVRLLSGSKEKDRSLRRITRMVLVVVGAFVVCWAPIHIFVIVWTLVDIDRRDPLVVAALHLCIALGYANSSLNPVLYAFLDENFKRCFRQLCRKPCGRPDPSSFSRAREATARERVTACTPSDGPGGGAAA
- test.description: Inhibition of DPDPE-stimulated [35S]GTPγS binding
- Format: biochemical
- measurement.parameters: antagonism of agonist DPDPE, read-out: δ, DPDPE Ke
Give Kb for every item shown.
Respond with the bare value in nM.

Value wanted: Kb (cloned human δ opioid receptor (Homo sapiens, UniProt P41143)) of entry CC(C)[C@H](N)CN1CCN(c2cccc(O)c2)[C@@H](C)C1 [Compound 5i] 55

Value wanted: Kb (cloned human δ opioid receptor (Homo sapiens, UniProt P41143)) of entry CC1CN(CCCc2ccccc2)CCC1(C)c1cccc(O)c1 (stereo not drawn) [Compound 2c, reference compound] 0.9

Value wanted: Kb (cloned human δ opioid receptor (Homo sapiens, UniProt P41143)) of entry C[C@@H]1CN(c2cccc(O)c2)[C@@H](C)CN1CCCc1ccccc1 [Compound 5g] 55

Value wanted: Kb (cloned human δ opioid receptor (Homo sapiens, UniProt P41143)) of entry Oc1cccc(N2CCN(CCCc3ccccc3)CC2)c1 [Compound 5a, 3-(4-Phenylpropylpiperazin-1-yl)phenol] 34

Value wanted: Kb (cloned human δ opioid receptor (Homo sapiens, UniProt P41143)) of entry CC(C)[C@@H](CN1CCN(c2cccc(O)c2)[C@@H](C)C1)NC(=O)[C@H]1Cc2ccc(O)cc2CN1 [Compound 5j] 274

Value wanted: Kb (cloned human δ opioid receptor (Homo sapiens, UniProt P41143)) of entry C[C@@H]1CN(CCCc2ccccc2)CCN1c1cccc(O)c1 [Compound 5c] 7

Value wanted: Kb (cloned human δ opioid receptor (Homo sapiens, UniProt P41143)) of entry C[C@H]1CN(CCCc2ccccc2)CCN1c1cccc(O)c1 [Compound 5b] 13.4

Value wanted: Kb (cloned human δ opioid receptor (Homo sapiens, UniProt P41143)) of entry C[C@@H]1CN(CCCc2ccccc2)[C@@H](C)CN1c1cccc(O)c1 [Compound 5h] 179

Value wanted: Kb (cloned human δ opioid receptor (Homo sapiens, UniProt P41143)) of entry CC1CN(CCCc2ccccc2)CC(C)N1c1cccc(O)c1 (stereo not drawn) [Compound 5d] 4300
